From various publications: Kd for PDHK2 (Homo sapiens, UniProt Q15119).

Some compounds with known Kd results, for comparison:
For the record C[C@@](O)(C(=O)N1CCC(n2c(-c3ccccc3F)n[nH]c2=O)CC1)C(F)(F)F , what value of Kd is listed for PDHK2 (Homo sapiens, UniProt Q15119)?
300 to 3000 nM

Return Kd measured with PDHK2 (Homo sapiens, UniProt Q15119) given this compound: C[C@@](O)(C(=O)N1CCC(c2ccnn2-c2ccon2)CC1)C(F)(F)F
300 to 3000 nM

Missing value: Kd, PDHK2 (Homo sapiens, UniProt Q15119), entry COc1ccc(-n2nccc2C2CCN(C(=O)[C@@](C)(O)C(F)(F)F)CC2)cn1 . Fill in?
< 300 nM

# get_value(readout= Kd, system= PDHK2 (Homo sapiens, UniProt Q15119)) for C[C@@](O)(C(=O)N1CCC(c2cncn2-c2ccc(Cl)cc2F)CC1)C(F)(F)F
< 300 nM

Continuing:
Provide the documented Kd with PDHK2 (Homo sapiens, UniProt Q15119) as the system for C[C@@H]1CN(C(=O)[C@@](C)(O)C(F)(F)F)Cc2cnn(-c3ccc(F)cc3F)c21
< 300 nM

// lookup Kd | system=PDHK2 (Homo sapiens, UniProt Q15119) | key= Cc1ccc(C(=O)N(C(C)C)C2CCN(C(=O)[C@@](C)(O)C(F)(F)F)CC2)c(F)c1
140 nM

Item: C[C@@H]1CN(C(=O)[C@@](C)(O)C(F)(F)F)CC[C@@H]1N(C)C(=O)c1ccc(C#N)cc1 Test system: PDHK2 (Homo sapiens, UniProt Q15119) Read-out: Kd Value: ?
53 nM

# query: Kd | item C[C@@](O)(C(=O)N1CCC(c2ccnn2-c2ccc(Cl)cc2F)CC1)C(F)(F)F | system: PDHK2 (Homo sapiens, UniProt Q15119)
< 300 nM

For PDHK2 (Homo sapiens, UniProt Q15119), provide Kd of COc1ccc(-n2nccc2[C@H]2CCN(C(=O)[C@@](C)(O)C(F)(F)F)C[C@H]2C)cn1 please.
< 300 nM

Value wanted: Kd (PDHK2 (Homo sapiens, UniProt Q15119)) of entry C[C@@H]1CN(C(=O)[C@@](C)(O)C(F)(F)F)CC[C@@H]1N(C)C(=O)c1ccccc1
46 nM

Which measured Kd belongs to CC1CN(C(=O)[C@@](C)(O)C(F)(F)F)CCC1C1(c2nnc(-c3ccccc3)[nH]2)CC1 (stereo partly shown) , tested on PDHK2 (Homo sapiens, UniProt Q15119)?
8.3 nM

Notebook entry, PDHK2 (Homo sapiens, UniProt Q15119) assay: Kd of C[C@@](O)(C(=O)N1CCc2c(cnn2-c2ccc(Cl)cc2)C1)C(F)(F)F = ?
< 300 nM

Tell me reported Kd for C[C@@](O)(C(=O)N1CCC(c2ccnn2-c2ccc(F)cn2)CC1)C(F)(F)F , tested with PDHK2 (Homo sapiens, UniProt Q15119).
< 300 nM

Given the entry Cc1ccc(-n2ccnc2C2CCN(C(=O)[C@@](C)(O)C(F)(F)F)CC2)cc1 , what Kd was observed with PDHK2 (Homo sapiens, UniProt Q15119)?
300 to 3000 nM

Query the reported Kd for PDHK2 (Homo sapiens, UniProt Q15119); item: COc1ccc(-c2nnc(C3([C@H]4CCN(C(=O)[C@@](C)(O)C(F)(F)F)C[C@H]4C)CC3)o2)cc1
3.6 nM

PDHK2 (Homo sapiens, UniProt Q15119) / Kd / C[C@@H]1CN(C(=O)[C@@](C)(O)C(F)(F)F)CC[C@@H]1c1ccnn1[C@H]1CC[C@@H](O)CC1 : value?
< 300 nM

* * *

// note: Kd values for PDHK2 (Homo sapiens) were reported in different studies

Item: C[C@@](O)(C(=O)N1CCC(C2(c3nnc(-c4ccc(F)cc4)[nH]3)CC2)CC1)C(F)(F)F Test system: PDHK2 (Homo sapiens) Read-out: Kd Value: ?
180 nM

API: value(readout=Kd, system=PDHK2 (Homo sapiens)) for record C[C@@H]1CN(C(=O)[C@@](C)(O)C(F)(F)F)Cc2cnn(-c3ccccc3)c21
< 300 nM

Notebook entry, PDHK2 (Homo sapiens) assay: Kd of C[C@@H]1CN(C(=O)[C@@](C)(O)C(F)(F)F)CC[C@@H]1c1ccnn1-c1ccc(F)cn1 = ?
< 300 nM

New cases:
Give Kd (PDHK2 (Homo sapiens)) of the following compound: CCc1ccc(-n2nccc2C2CCN(C(=O)[C@@](C)(O)C(F)(F)F)CC2)cc1
< 300 nM

Lab request: please report Kd under test system PDHK2 (Homo sapiens) for C[C@@](O)(C(=O)N1CCC(c2ccnn2-c2ccc(C(F)(F)F)cc2F)CC1)C(F)(F)F
< 300 nM

* * *

Header: Kd / PDHK2 (Homo sapiens, UniProt Q15119) / multiple publications

# value lookup — system PDHK2 (Homo sapiens, UniProt Q15119), readout Kd, item C[C@@](O)(C(=O)N1CCC(c2ccnn2-c2ccc(C#N)cc2)CC1)C(F)(F)F
< 300 nM

Which measured Kd belongs to C[C@@H]1CN(C(=O)[C@@](C)(O)C(F)(F)F)Cc2cnn(-c3ccc(F)cn3)c21 , tested on PDHK2 (Homo sapiens, UniProt Q15119)?
< 300 nM

// map C[C@@H]1CN(C(=O)[C@@](C)(O)C(F)(F)F)CC[C@@H]1C1(c2nnc(-c3ccc(Cl)cc3)[nH]2)CC1 to recorded Kd (system: PDHK2 (Homo sapiens, UniProt Q15119))
2.8 nM

Short answer please: Kd, PDHK2 (Homo sapiens, UniProt Q15119), entry C[C@@H]1CN(C(=O)[C@@](C)(O)C(F)(F)F)Cc2cnn(-c3ccc(F)cc3)c21
< 300 nM

# query: Kd | item C[C@@](O)(C(=O)N1CCC(c2ccnn2-c2ccc(F)cc2Cl)CC1)C(F)(F)F | system: PDHK2 (Homo sapiens, UniProt Q15119)
< 300 nM

More entries:
Provide the documented Kd with PDHK2 (Homo sapiens, UniProt Q15119) as the system for COc1ccc(-n2nncc2C2CCN(C(=O)[C@@](C)(O)C(F)(F)F)CC2)cc1
300 to 3000 nM

PDHK2 (Homo sapiens, UniProt Q15119) / Kd / Cc1cc(C2CCN(C(=O)[C@@](C)(O)C(F)(F)F)CC2)nn1-c1ccc(Cl)cc1 : value?
300 to 3000 nM

# query: Kd | item C[C@H]1CN(C(=O)[C@@](C)(O)C(F)(F)F)Cc2cn[nH]c21 | system: PDHK2 (Homo sapiens, UniProt Q15119)
300 to 3000 nM

* * *

For reference, the following Kd results for UniProt:Q15119 were taken from various sources.

// worked examples, Kd included
Give recorded Kd with UniProt:Q15119 for the following compound: CCN(C(=O)c1ccc(C#N)cc1)C1CCN(C(=O)[C@@](C)(O)C(F)(F)F)CC1
350 nM

Value wanted: Kd (UniProt:Q15119) of entry C[C@@H]1CN(C(=O)[C@@](C)(O)C(F)(F)F)Cc2cnn(-c3ncccc3F)c21
< 300 nM

More entries:
Return Kd measured with UniProt:Q15119 given this compound: CC(C)(c1nnc(-c2ccccc2)o1)C1CCN(C(=O)[C@@](C)(O)C(F)(F)F)CC1
50 nM

Query the reported Kd for UniProt:Q15119; item: C[C@@](O)(C(=O)N1CCC(c2nncn2-c2ccc(F)cc2)CC1)C(F)(F)F
300 to 3000 nM

UniProt:Q15119 / Kd / Cc1cc(C2CCN(C(=O)[C@@](C)(O)C(F)(F)F)CC2)n(-c2ccc(Cl)cc2)n1 : value?
< 300 nM

Identify the measured Kd of COc1ccc(-n2nccc2C2CCN(C(=O)C(C)(O)C(F)(F)F)CC2)c(F)c1 (racemic) for UniProt:Q15119.
< 300 nM

Recorded Kd for C[C@@](O)(C(=O)N1CCc2nn(-c3ccc(F)cc3F)cc2C1)C(F)(F)F with UniProt:Q15119, please?
< 300 nM

Query Kd on UniProt:Q15119 for C[C@@](O)(C(=O)N1CCC(c2ccnn2C2CCCCC2)CC1)C(F)(F)F
< 300 nM

Which measured Kd belongs to C[C@@H]1CN(C(=O)[C@@](C)(O)C(F)(F)F)CC[C@@H]1N(C)C(=O)c1ccc(F)cc1F , tested on UniProt:Q15119?
19 nM

// lookup Kd | system=UniProt:Q15119 | key= C[C@@H]1CN(C(=O)[C@@](C)(O)C(F)(F)F)CC[C@@H]1c1ccn(-c2ccc(F)cc2)n1
< 300 nM

Recall the recorded Kd for C[C@@H]1CN(C(=O)[C@@](C)(O)C(F)(F)F)CC[C@@H]1c1ccnn1-c1ccc(Cl)cc1 with UniProt:Q15119 and state it.
< 300 nM

Lab note: need Kd for COc1ccc(-n2ccc(C3CCN(C(=O)[C@@](C)(O)C(F)(F)F)CC3)n2)nn1 on UniProt:Q15119, anyone have it?
300 to 3000 nM

Request: Kd, test system UniProt:Q15119, entry C[C@@](O)(C(=O)N1CCC(c2nccn2-c2ccc(F)cc2)CC1)C(F)(F)F
300 to 3000 nM

Given the entry Cn1nccc1C1CCN(C(=O)[C@@](C)(O)C(F)(F)F)CC1 , what Kd was observed with UniProt:Q15119?
300 to 3000 nM

Notebook: pull reported Kd for UniProt:Q15119, entry C[C@@H]1CN(C(=O)[C@@](C)(O)C(F)(F)F)Cc2cnc(-c3ncc(F)cc3F)n21
< 300 nM

// lookup Kd | system=UniProt:Q15119 | key= C[C@@](O)(C(=O)N1CCC(n2ccnc2-c2ccc(Cl)cc2)CC1)C(F)(F)F
< 300 nM

Reported Kd for UniProt:Q15119, given C[C@@H]1CN(C(=O)[C@@](C)(O)C(F)(F)F)CC[C@@H]1C1(c2nnc(-c3ccccc3)o2)CC1 (stereo in doubt) ?
4.9 nM

So what Kd did C[C@@H]1CN(C(=O)[C@@](C)(O)C(F)(F)F)CC[C@@H]1N(C)C(=O)c1ccc(Cl)cc1F get with UniProt:Q15119?
20 nM

# returns recorded Kd (system: UniProt:Q15119) for C[C@@](O)(C(=O)N1CCC(c2cnnn2-c2ccc(Cl)cc2)CC1)C(F)(F)F
300 to 3000 nM

For the record COc1ccc(-c2nnc(C3([C@H]4CCN(C(=O)[C@@](C)(O)C(F)(F)F)C[C@H]4C)CC3)[nH]2)cn1 , what value of Kd is listed for UniProt:Q15119?
6.5 nM

Find Kd (UniProt:Q15119) for the entry CC(C)N(C(=O)c1ccc(C#N)cc1)C1CCN(C(=O)[C@@](C)(O)C(F)(F)F)CC1
470 nM
